Tested System: glucokinase (GK), human enzyme (Homo sapiens, UniProt P35557)
Sequence (P35557 1-465): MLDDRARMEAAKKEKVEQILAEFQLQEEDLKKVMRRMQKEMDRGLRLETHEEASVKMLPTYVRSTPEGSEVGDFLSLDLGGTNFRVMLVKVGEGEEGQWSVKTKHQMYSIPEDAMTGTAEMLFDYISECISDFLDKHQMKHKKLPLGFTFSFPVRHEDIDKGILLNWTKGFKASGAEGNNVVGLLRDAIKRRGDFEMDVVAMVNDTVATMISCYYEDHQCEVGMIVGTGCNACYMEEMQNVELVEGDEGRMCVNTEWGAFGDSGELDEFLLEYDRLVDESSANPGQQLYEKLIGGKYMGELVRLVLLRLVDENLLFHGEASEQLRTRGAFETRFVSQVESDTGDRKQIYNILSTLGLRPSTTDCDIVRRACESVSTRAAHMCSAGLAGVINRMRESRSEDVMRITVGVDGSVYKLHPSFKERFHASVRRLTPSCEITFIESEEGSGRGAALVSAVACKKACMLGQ
Method Summary: Glucokinase Activation Screening Assay (coupled enzyme assay with PK/LDH, NADH decline at 340 nm)
Test Conditions: 2 mM glucose
Procedure: Glucokinase Activation Screening Assay GK activity (human or rat enzyme) is measured by an coupled enzyme assay using pyruvate kinase (PK) and lactate dehydrogenase (LDH) as coupling enzymes. GK activity is calculated from the decline in NADH monitored photometrically with a microliter plate (MTP) reader at 340 nm. For screening purposes, the GK assay is routinely run in a 384-MTP format, in a total volume of 33 μl/well. […]
pEC50: −log10 of the molar value.
Quick list: pEC50 per entry.

COC[C@H](C)Oc1cc(O[C@@H](C)Cc2ccccc2)cc(C(=O)Nc2ccn(Cc3cccnc3)n2)c1 [A7]: 6.00 to 8.00

Now let's try a different one.
Query :: Looking for the measured pEC50 of CC(C)Oc1cc(OCCc2ccsc2)cc(C(=O)Nc2ccn(Cc3ccccc3)n2)c1 [A9] , can you help?
Result :: 6.00 to 8.00
